Tested on: KRAS G12C-dependent Ba/F3 cells
Test: Ba/F3 proliferation assay, KRAS G12C
Assay type: cell-based
Details: Mus musculus, BaF3, 72 h, AlamarBlue
Please provide measured IC50 for the entries that follow.
Report the value in nM with no unit label.

Q. For the molecule CO[C@@H]1C[C@@H]([C@H](C)Oc2cc(-c3ccn(C)n3)nc(-c3onc4c3CCC[C@@]43CCCc4sc(N)c(C#N)c43)n2)N(C)C1 , what IC50 is on record?
A. 10

Q. Please report the recorded IC50 for C[C@H](O)Cn1ccc(-c2cc(O[C@@H](C)[C@@H]3CCCN3C)nc(-c3onc4c3CCC[C@@]43CCCc4sc(N)c(C#N)c43)n2)n1 .
A. 9

Q. For the molecule CNC(=O)c1ccn(-c2cc(O[C@@H](C)[C@@H]3CCCN3C)nc(-c3noc4c3CCC[C@@]43CCCc4sc(N)c(C#N)c43)n2)n1 , what IC50 is on record?
A. 2

Q. Requested read-out: IC50. Entry: C[C@H](Oc1cc(N2CCN(C)C3(CC3)C2)nc(-c2onc3c2CCC[C@@]32CCCc3sc(N)c(C#N)c32)n1)[C@@H]1CCCN1C
A. 233

Q. Returns the measured IC50 for the input molecule. Input: C[C@H](Oc1cc(-c2cncs2)nc(-c2noc3c2CCC[C@@]32CCCc3sc(N)c(C#N)c32)n1)[C@@H]1CCCN1C
A. 21

Q. Would you mind telling me what IC50 value was observed for C[C@H](Oc1cc(-n2cncn2)nc(-c2onc3c2CCC[C@@]32CCCc3sc(N)c(C#N)c32)n1)[C@@H]1CCCN1C ?
A. 11

Q. Item CO[C@@H]1C[C@@H]([C@H](C)Oc2cc(-c3cnn(C)n3)nc(-c3onc4c3CCC[C@@]43CCCc4sc(N)c(C#N)c43)n2)N(C)C1 has what recorded IC50?
A. 40

Q. Value lookup for IC50; key = C[C@H](Oc1cc(-c2cccc(C(N)=O)c2)nc(-c2noc3c2CCC[C@@]32CCCc3sc(N)c(C#N)c32)n1)[C@@H]1CCCN1C
A. 33

Q. What does the data say about its IC50? Entry: CCN1CCN(c2cc(O[C@@H](C)[C@@H]3C[C@@H](F)CN3C)nc(-c3noc4c3CCC[C@@]43CCCc4sc(N)c(C#N)c43)n2)CC12CC2
A. 305

---

Target: KRAS (G12C)::SOS1 (Homo sapiens (Human), UniProt P01116, C118S/C51S/C80L/G12C)
Sequence (P01116 other isoform, or with tags, fused parts or gaps G12C/C51S/C80L/C118S): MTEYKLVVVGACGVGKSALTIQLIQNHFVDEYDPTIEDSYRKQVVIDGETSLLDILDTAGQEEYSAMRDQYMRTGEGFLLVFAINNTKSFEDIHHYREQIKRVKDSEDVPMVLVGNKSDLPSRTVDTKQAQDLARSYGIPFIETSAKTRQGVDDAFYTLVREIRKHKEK
Experiment: KRAS::SOS1 AlphaScreen binding assay, KRAS G12C
Assign IC50 to each entry below.
Hi! Could you send only the number? It should be in nM, unit omitted.

Q. Can you share its IC50? I mean this compound: CC(=O)N1CCN(c2cc(O[C@@H](C)[C@@H]3CCCN3C)nc(-c3noc4c3CCC[C@@]43CCCc4sc(N)c(C#N)c43)n2)CC12CC2
A. 2

Q. Please look up its IC50: C[C@H](Oc1cc(-n2ccc(C(=O)N[C@H]3CCOC3)n2)nc(-c2onc3c2CCC[C@@]32CCCc3sc(N)c(C#N)c32)n1)[C@@H]1CCCN1C
A. 2

Q. For C[C@H](Oc1cc(-n2ccc(C(=O)N(C)C3COC3)n2)nc(-c2noc3c2CCC[C@@]32CCCc3sc(N)c(C#N)c32)n1)[C@@H]1CCCN1C , what is its reported IC50?
A. 1

Q. Looking for the measured IC50 of C[C@H](Oc1cc(-c2ccn(CC(C)(C)O)n2)nc(-c2onc3c2CCC[C@@]32CCCc3sc(N)c(C#N)c32)n1)[C@@H]1CCCN1C , can you help?
A. 2

Q. Returns the measured IC50 for the input compound. Input: CO[C@@H]1C[C@@H]([C@H](C)Oc2cc(-c3cnn(C)n3)nc(-c3noc4c3CCC[C@@]43CCCc4sc(N)c(C#N)c43)n2)N(C)C1
A. 3

Q. For the compound C[C@H](Oc1cc(-c2ccn(-c3ccccc3)n2)nc(-c2noc3c2CCC[C@@]32CCCc3sc(N)c(C#N)c32)n1)[C@@H]1CCCN1C , what IC50 is on record?
A. 3

Q. What IC50 value was documented for this compound, CO[C@@H]1C[C@@H]([C@H](C)Oc2cc(-c3ccn(C)n3)nc(-c3onc4c3CCC[C@@]43CCCc4sc(N)c(C#N)c43)n2)N(C)C1 ?
A. 3

Q. Fill in the blank: the reported IC50 of C[C@H](Oc1nc(-c2noc3c2CCC[C@@]32CCCc3sc(N)c(C#N)c32)nc(N2CCNC3(CC3)C2)c1Cl)[C@@H]1C[C@@H](F)CN1C is ____.
A. 2

Q. Fill in: IC50 of C[C@H](Oc1cc(-n2ccncc2=O)nc(-c2noc3c2CCC[C@@]32CCCc3sc(N)c(C#N)c32)n1)[C@@H]1CCCN1C is ___
A. 2

Q. Would you kindly share the measured IC50 for C[C@H](Oc1cc(N2CC[C@H](N(C)C)C2)nc(-c2noc3c2CCC[C@@]32CCCc3sc(N)c(C#N)c32)n1)[C@@H]1C[C@@H](F)CN1C ?
A. 7

Q. Please report the recorded IC50 for C[C@H](Oc1cc(N2CC3CCC(C2)N3)nc(-c2noc3c2CCC[C@@]32CCCc3sc(N)c(C#N)c32)n1)[C@@H]1CCCN1C .
A. 3

Q. Consider the compound shown here: C[C@H](Oc1cc(N2CCN(CCO)CC2)nc(-c2noc3c2CCC[C@@]32CCCc3sc(N)c(C#N)c32)n1)[C@@H]1CCCN1C What is its recorded IC50?
A. 3

Q. // lookup IC50 for C[C@H](Oc1cc(-c2cncs2)nc(-c2noc3c2CCC[C@@]32CCCc3sc(N)c(C#N)c32)n1)[C@@H]1CCCN1C
A. 7

Q. Consider the compound [2H]C([2H])([2H])N1C[C@H](F)C[C@H]1[C@H](C)Oc1cc(N2CCN(C([2H])([2H])[2H])C3(CC3)C2)nc(-c2noc3c2CCC[C@@]32CCCc3sc(N)c(C#N)c32)n1 and give its measured IC50.
A. 6

Q. Give the measured IC50 of C[C@H](Oc1cc(-n2ccc(C(=O)N[C@@H]3CCOC3)n2)nc(-c2onc3c2CCC[C@@]32CCCc3sc(N)c(C#N)c32)n1)[C@@H]1CCCN1C .
A. 2

Q. I would be grateful if you could share the reported IC50 for C[C@H](Oc1cc(-n2cc(-c3cncs3)nn2)nc(-c2noc3c2CCC[C@@]32CCCc3sc(N)c(C#N)c32)n1)[C@@H]1CCCN1C .
A. 2

Q. Query: IC50; subject: C[C@H](Oc1cc(N2C[C@@H](N(C)C)[C@@H](F)C2)nc(-c2noc3c2CCC[C@@]32CCCc3sc(N)c(C#N)c32)n1)[C@@H]1CCCN1C
A. 6
